pIC50 values, listed per item
Biological target: human CCR4 (Homo sapiens, UniProt P51679)
Sequence (P51679 1-360): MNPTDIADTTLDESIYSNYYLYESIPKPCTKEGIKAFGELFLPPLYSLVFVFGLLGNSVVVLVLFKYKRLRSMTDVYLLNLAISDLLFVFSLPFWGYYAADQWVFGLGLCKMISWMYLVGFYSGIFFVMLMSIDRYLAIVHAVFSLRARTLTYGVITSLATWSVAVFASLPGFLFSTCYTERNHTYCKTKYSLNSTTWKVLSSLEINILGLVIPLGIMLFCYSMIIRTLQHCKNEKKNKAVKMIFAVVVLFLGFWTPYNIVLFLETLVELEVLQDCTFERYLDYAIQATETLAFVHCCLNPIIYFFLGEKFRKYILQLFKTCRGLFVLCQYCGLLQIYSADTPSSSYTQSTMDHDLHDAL
Assay: Inhibition test on activity of MDC mediated by CCR4 (MDC-induced transient increase of Ca ions) in CCR4/CHO cells
Settings: in the presence of 0.3% BSA; human MDC 10 nM; CCR4/CHO cell; read-out: IC50 value (inhibition of Ca2+ transient increase by MDC)
Scale for pIC50: -log10 of concentration given in mol/L; no unit attached.

{"inputSmiles": "COc1ccc(COc2cc(Br)cnc2NS(=O)(=O)c2ccc(C)cc2)cc1OCCN(C)C", "systemUnderTest": "human CCR4 (Homo sapiens, UniProt P51679)", "pIC50": 6.64}

Next molecule, please.
Sure, the documented pIC50 for Cc1cnc(NS(=O)(=O)c2ccccc2Cl)c(OCc2ccc(Cl)c(OCC3CCN(C)CC3)c2)n1 is 7.10
